tested on: Vero cells; conditions: African green monkey
Binary label based on CC50 with cut-off 10 µM: below gives MET, not below gives NOT MET.

>  <compound>
COc1cc(NC(C(=O)N2CCc3cc(OC)c(C(F)(F)F)cc32)c2ccc(Cl)cc2OCCO)cc(S(C)(=O)=O)c1 (single isomer, unassigned) [Compound 5B]

>  <discrete label>
MET

$$$$
>  <compound>
COc1cc(NC(C(=O)N2CCc3ccc(OC(F)(F)F)cc32)c2ccc(Cl)cc2OCCCC(=O)O)cc(S(C)(=O)=O)c1 (single isomer, unassigned) [Compound 9B]

>  <discrete label>
NOT MET

$$$$
>  <compound>
COc1cc(NC(C(=O)N2CCc3cc(OC)c(C(F)(F)F)cc32)c2ccc(F)cc2OCCO)cc(S(C)(=O)=O)c1 (single isomer, unassigned) [Compound 2B]

>  <discrete label>
NOT MET

$$$$

### Prompt API: query returns whether the compound falls strictly under 10 µM in CC50. Query: COc1cc(NC(C(=O)N2CCc3ccc(C(F)(F)F)cc32)c2ccc(F)cc2OCCO)cc(S(C)(=O)=O)c1 (single isomer, unassigned) [Compound 1B]
### Response MET

### Prompt API: query returns whether the compound falls strictly under 10 µM in CC50. Query: COc1cc(NC(C(=O)N2CCc3ccc(C(F)(F)F)cc32)c2ccc(F)cc2OCCO)cc(S(C)(=O)=O)c1 (single isomer, unassigned) [Compound 1A]
### Response NOT MET

---

Reported CC50 values are given for each entry in this list.
experiment: in vitro; settings: African green monkey
Write it as a number; the unit µM goes unstated.

>  <molecule>
COc1cc(NC(C(=O)N2CCc3ccc(OC(F)(F)F)cc32)c2ccc(F)cc2OCCO)cc(S(C)(=O)=O)c1 (single isomer, unassigned) [Compound 3A]

>  <CC50 [µM]>
11

$$$$
>  <molecule>
COc1cc(NC(C(=O)N2CCc3ccc(OC(F)(F)F)cc32)c2ccc(Cl)cc2OCCCC(=O)O)cc(S(C)(=O)=O)c1 (racemic) [Compound 9]

>  <CC50 [µM]>
12

$$$$
>  <molecule>
COc1cc(NC(C(=O)N2CCc3ccc(OC(F)(F)F)cc32)c2ccc(Cl)cc2OCCCC(=O)O)cc(S(C)(=O)=O)c1 (single isomer, unassigned) [Compound 9A]

>  <CC50 [µM]>
12

$$$$

### Prompt # CC50 lookup, item COc1cc(NC(C(=O)N2CCc3cc(OC)c(C(F)(F)F)cc32)c2ccc(Cl)cc2OCCO)cc(S(C)(=O)=O)c1 (racemic) [Compound 5]
### Response 11

### Prompt # CC50 lookup, item COc1cc(NC(C(=O)N2CCc3ccc(C(F)(F)F)cc32)c2ccc(Cl)cc2OCCO)cc(S(C)(=O)=O)c1 (racemic) [Compound 4]
### Response 7.7

### Prompt # CC50 lookup, item COc1cc(NC(C(=O)N2CCc3ccc(C(F)(F)F)cc32)c2ccc(Cl)cc2OCCCC(=O)O)cc(S(C)(=O)=O)c1 (racemic) [Compound 7]
### Response 13

---

tested on: DENV-2 strain 16681; experiment: Tetravalent RT-qPCR assay, serotype 2; format: cell-based, Dengue virus; conditions: Dengue virus, DENV2, 72 h; RT-qPCR serotype 2 16681, Vero cells, day 3
value type: EC50 (nM)
Write it as a number; the unit nM goes unstated.

These solved cases illustrate the format of a correct answer.
>  <compound>
COc1cc(NC(C(=O)N2CCc3ccc(OC(F)(F)F)cc32)c2ccc(Cl)cc2OCCO)cc(S(C)(=O)=O)c1 (single isomer, unassigned)

>  <measured target>
DENV-2 strain 16681

>  <readout units>
nM

>  <observed result>
0.16

$$$$
>  <compound>
COc1cc(NC(C(=O)N2CCc3ccc(C(F)(F)F)cc32)c2ccc(Cl)cc2OCCCC(=O)O)cc(S(C)(=O)=O)c1 (single isomer, unassigned)

>  <measured target>
DENV-2 strain 16681

>  <readout units>
nM

>  <observed result>
0.19

$$$$
>  <compound>
COc1cc(NC(C(=O)N2CCc3ccc(C(F)(F)F)cc32)c2ccc(Cl)cc2OCCO)cc(S(C)(=O)=O)c1 (single isomer, unassigned)

>  <measured target>
DENV-2 strain 16681

>  <readout units>
nM

>  <observed result>
0.45

$$$$

Alright, here's another compound for you.
### Prompt Notebook: pull reported EC50 for DENV-2 strain 16681, entry COc1cc(NC(C(=O)N2CCc3cc(OC)c(C(F)(F)F)cc32)c2ccc(F)cc2OCCO)cc(S(C)(=O)=O)c1 (single isomer, unassigned)
### Response 1.3
